This collection of values is drawn from the supplement of paper PMC7877785.

# protocol: self-splicing fitness, log relative to wild type (ln ratio); higher = more splicing; Tetrahymena group I intron in knt gene, E. coli kanamycin selection, DiMSum; sequences stand for … in CUCUCU…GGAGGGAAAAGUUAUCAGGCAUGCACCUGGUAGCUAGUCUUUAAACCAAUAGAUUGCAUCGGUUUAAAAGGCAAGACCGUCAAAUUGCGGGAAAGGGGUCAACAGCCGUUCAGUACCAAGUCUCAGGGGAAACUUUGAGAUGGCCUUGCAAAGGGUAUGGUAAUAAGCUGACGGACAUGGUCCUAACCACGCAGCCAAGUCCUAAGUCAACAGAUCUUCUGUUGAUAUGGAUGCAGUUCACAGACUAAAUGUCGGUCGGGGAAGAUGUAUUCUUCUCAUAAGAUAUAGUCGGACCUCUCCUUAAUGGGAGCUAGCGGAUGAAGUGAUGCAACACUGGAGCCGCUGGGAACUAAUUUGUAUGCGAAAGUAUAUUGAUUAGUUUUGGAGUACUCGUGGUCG;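 also: selection with 25 µg/mL kanamycin versus none on LB agar overnight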
# experimental.parameters: 37 °C
Please provide measured self-splicing fitness (ln) for the entries that follow.
Answers are plain numbers.

Some sequences with recorded self-splicing fitness (ln):
UCCAAGCAAUAUUACGCCAC: -1.13
GUUAAGCAAUAUUACGAGGG: -3.08
CCCGAGCAAUAUUACGAGCU: -2.69
UGGCAGCAAUAUUACGGAAA: -0.318
UUUGAGCAAUAUUACGCUUA: -2.07
ACUCAGCAAUAUUACGAGUG: -0.296
GGAAAGCAAUAUUACGAUCG: -0.145
UGUGAGCAAUAUUACGAUCA: -0.874
CGUAAGCAAUAUUACGCACG: -1.06
CGCAAGCAAUAUUACGUCGA: -1.67

I'm hoping you can list self-splicing fitness (ln) for every sequence here, please.
1. UACAAGCAAUAUUACGCCAU
2. UUUCAGCAAUAUUACGCACG
3. AGUCAGCAAUAUUACGAUUA
4. UUUCAGCAAUAUUACGAAAA
5. ACAUAGCAAUAUUACGGGAG

1: -2.62; 2: -0.0521; 3: -0.381; 4: -0.793; 5: -1.52
